src = ChEMBL document CHEMBL5131517

- measured target: 5-hydroxytryptamine receptor 2C (Homo sapiens) (UniProt P28335)
- Sequence (P28335 whole entry): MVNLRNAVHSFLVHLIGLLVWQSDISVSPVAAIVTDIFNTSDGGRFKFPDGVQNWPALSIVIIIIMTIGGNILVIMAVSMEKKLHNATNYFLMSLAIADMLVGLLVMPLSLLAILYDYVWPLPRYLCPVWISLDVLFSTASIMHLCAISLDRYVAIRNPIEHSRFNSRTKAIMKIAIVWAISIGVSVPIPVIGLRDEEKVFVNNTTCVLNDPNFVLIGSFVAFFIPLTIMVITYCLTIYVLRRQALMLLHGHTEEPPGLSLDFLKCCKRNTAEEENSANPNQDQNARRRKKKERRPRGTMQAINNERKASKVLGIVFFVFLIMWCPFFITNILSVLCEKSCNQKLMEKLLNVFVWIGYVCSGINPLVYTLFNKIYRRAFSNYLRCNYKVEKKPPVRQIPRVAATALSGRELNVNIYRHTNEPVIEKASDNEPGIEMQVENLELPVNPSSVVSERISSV
- protocol summary: Agonist activity at human 5HT2C receptor stably expressed in Flp-In-T-REx-293 cells assessed as maximal Gq-mediated calcium flux by Fluo-4 direct dye based FLIPR Tetra assay relative to control
- Assay type: functional, cell-based
- conditions: filed as agonist
Listed here: items and their measured Emax.
Please give a number only; it is taken to be in %.

compound	Emax / %
COc1ccc(C2NCCc3c2[nH]c2ccc(Cl)cc32)cc1OC (stereo unspecified)	99.3
Clc1ccc2[nH]c3c(c2c1)CCNC3C1CCCCC1 (stereo unspecified)	98.5

// lookup Emax for Clc1ccc2[nH]c3c(c2c1)CCNC3c1cc2ccccc2s1 (stereo unspecified)
105

* * *

- measured target: 5-hydroxytryptamine receptor 2A (Homo sapiens, UniProt P28223)
- Sequence (P28223 whole entry): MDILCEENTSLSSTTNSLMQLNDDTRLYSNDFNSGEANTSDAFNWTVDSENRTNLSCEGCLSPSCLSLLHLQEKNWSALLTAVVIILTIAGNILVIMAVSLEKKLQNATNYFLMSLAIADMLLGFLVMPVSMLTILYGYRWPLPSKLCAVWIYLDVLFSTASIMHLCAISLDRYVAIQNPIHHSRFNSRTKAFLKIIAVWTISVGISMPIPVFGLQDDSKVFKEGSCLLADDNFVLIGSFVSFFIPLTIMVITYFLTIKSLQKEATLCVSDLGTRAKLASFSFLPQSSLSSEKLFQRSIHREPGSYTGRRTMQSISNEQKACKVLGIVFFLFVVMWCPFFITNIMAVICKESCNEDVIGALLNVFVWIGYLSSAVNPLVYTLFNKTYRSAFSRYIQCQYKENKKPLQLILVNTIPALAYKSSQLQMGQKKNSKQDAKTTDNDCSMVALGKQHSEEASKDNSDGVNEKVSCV
- protocol summary: Agonist activity at human 5HT2A receptor stably expressed in Flp-In-T-REx-293 cells assessed as maximal Gq-mediated calcium flux by Fluo-4 direct dye based FLIPR Tetra assay relative to control
- Format: functional, cell-based
Emax values for the molecules below.
Numbers only here, please. The scale is %.

// worked examples, Emax included
molecule	Emax / %
Clc1ccc2[nH]c3c(c2c1)CCNC3c1cccs1 (stereo not drawn)	23.7
COc1ccc2cc(C3NCCc4c3[nH]c3ccc(F)cc43)ccc2c1 (stereo not drawn)	30.5
Fc1ccc2[nH]c3c(c2c1)CCNC3c1cccs1 (stereo not drawn)	36.4
Fc1ccccc1C1NCCc2c1[nH]c1ccc(Cl)cc21 (stereo not drawn)	23.2
Oc1ccc2[nH]c3c(c2c1)CCNC3c1ccccc1O (stereo not drawn)	26.9
Oc1ccc2[nH]c3c(c2c1)CCNC3c1ccccc1Cl (stereo not drawn)	14.3
Cc1ccc(C2NCCc3c2[nH]c2ccc(F)cc32)cc1 (stereo not drawn)	39.9

Field: next molecule
Emax lookup needed for Fc1ccc2[nH]c3c(c2c1)CCNC3C1CCOCC1 (stereo not drawn) , thanks.
34.1

* * *

- measured target: 5-hydroxytryptamine receptor 2B (Homo sapiens, UniProt P41595)
- Sequence (P41595 whole entry): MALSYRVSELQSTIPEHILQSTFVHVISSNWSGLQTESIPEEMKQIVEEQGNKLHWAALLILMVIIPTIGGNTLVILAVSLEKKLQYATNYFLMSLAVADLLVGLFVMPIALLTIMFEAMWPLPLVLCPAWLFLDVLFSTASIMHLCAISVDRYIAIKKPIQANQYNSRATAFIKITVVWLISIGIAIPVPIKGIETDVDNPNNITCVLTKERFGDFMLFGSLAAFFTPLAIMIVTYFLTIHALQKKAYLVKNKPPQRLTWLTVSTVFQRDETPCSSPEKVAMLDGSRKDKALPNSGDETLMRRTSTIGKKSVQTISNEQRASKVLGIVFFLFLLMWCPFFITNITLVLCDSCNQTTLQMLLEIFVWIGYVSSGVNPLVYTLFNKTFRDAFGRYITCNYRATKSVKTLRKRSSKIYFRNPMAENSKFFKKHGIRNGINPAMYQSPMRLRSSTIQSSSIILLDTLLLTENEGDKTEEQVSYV
- protocol summary: Agonist activity at human 5HT2B receptor stably expressed in Flp-In-T-REx-293 cells assessed as maximal Gq-mediated calcium flux by Fluo-4 direct dye based FLIPR Tetra assay relative to control
- Assay type: functional, cell-based
- conditions: filed as agonist
quantity measured: Emax (%)
Report the figure in % without appending any unit label.

In the examples that follow, each entry is paired with its recorded Emax.
compound	units label	Emax
Cc1ccc(O)c(C2NCCc3c2[nH]c2ccc(Cl)cc32)c1 (centres undefined)	%	106
COc1cc(OC)c(C2NCCc3c2[nH]c2ccc(Cl)cc32)cc1OC (centres undefined)	%	96.7

Please report the recorded Emax for Oc1c(Cl)cccc1C1NCCc2c1[nH]c1ccc(F)cc21 (centres undefined) .
96.2

Give its Emax value. Item: COc1ccc(C2NCCc3c2[nH]c2ccc(Cl)cc32)cc1OC (centres undefined)
102

Please look up its Emax: Oc1cc(Cl)ccc1C1NCCc2c1[nH]c1ccc(Cl)cc21 (centres undefined)
109

Would you mind telling me what Emax value was observed for COc1cc(OC)c(C2NCCc3c2[nH]c2ccc(F)cc32)cc1OC (centres undefined) ?
106

* * *

- measured target: 5-hydroxytryptamine receptor 2A (Homo sapiens, UniProt P28223)
- protocol summary: Agonist activity at human 5HT2A receptor stably expressed in Flp-In-T-REx-293 cells assessed as increase in Gq-mediated calcium flux by Fluo-4 direct dye based FLIPR Tetra assay
pEC50: −log10 of the molar value.
So basically: pEC50 at 6 or higher? That is class 1. Lower than 6? That is class 0.

The following compounds have reported results that may help.
compound	class name
Clc1ccc2[nH]c3c(c2c1)CCNC3C1CCCCC1 (stereo unspecified)	class 1
Cc1ccc(C2NCCc3c2[nH]c2ccc(F)cc32)c(C)c1 (stereo unspecified)	class 1
COc1cc(OC)c(C2NCCc3c2[nH]c2ccc(Cl)cc32)cc1OC (stereo unspecified)	class 1
Cc1cccc(C2NCCc3c2[nH]c2ccc(O)cc32)c1 (stereo unspecified)	class 1
Fc1ncccc1C1NCCc2c1[nH]c1ccc(Cl)cc21 (stereo unspecified)	class 1
Oc1ccc2[nH]c3c(c2c1)CCNC3c1cc(F)ccc1O (stereo unspecified)	class 1

For this compound, is measured pEC50 6 or higher? Oc1c(Br)cccc1C1NCCc2c1[nH]c1ccc(Cl)cc21 (stereo unspecified)
class 1

Evaluate COc1ccc(OC)c(C2NCCc3c2[nH]c2ccc(Cl)cc32)c1 (stereo unspecified) : pEC50 at minimum 6?
class 0

Hi, just wondering whether Oc1cccc(C2NCCc3c2[nH]c2ccc(Cl)cc32)c1 (stereo unspecified) shows pEC50 of 6 or higher.
class 0

Assess whether reported pEC50 for Fc1ccc2[nH]c3c(c2c1)CCNC3c1cc2ccccc2s1 (stereo unspecified) sits at 6 or higher.
class 0
